test: nuclear p53 accumulation, HPV+ cells – imaging, p53-positive nuclei imaging, 24 h, 48 h (AID 1508601)
settings: 24/48 h, measured here: cell number at 24 h, Library stock concentration: 370 uM
In all, about 5,700 compounds went through this assay and about 85 (1%) were called active. The full list was thinned out, with actives kept by preference.
Give nuclei count, normalised for every item shown.
Give bare numbers, in %.

Illustrative cases are given below, each with its answer.
OCC1OC(n2cnc3c2NC=NCC3O)CC1O (centres undefined) :: 121
Nc1ccn(C2C=C(CO)C(O)C2O)c(=O)n1 (centres undefined) :: 70
NC(=O)c1ncn(C2OC(CO)C(O)C2O)c1O (centres undefined) :: 112

Attention now shifts to the item below.
Query: nuclei count, normalised; subject: N#CSc1cc(SC#N)c(N)nc1N
114
